test: Apparent permeability from apical side to basolateral side in MDCK cells; assay type: ADME, cell-based, Canis lupus familiaris; conditions: dog
Parameter measured: Papp A→B (×10⁻⁶ cm/s)
One number for each entry, in ×10⁻⁶ cm/s.

-- ask Report Papp A→B for `COc1nc(N[C@@H](C)c2cc3cc(Cl)ccc3[nH]c2=O)ncc1C#N` please.
-- reply 12.6

* * *

assay: Metabolic stability in mouse liver microsomes assessed as compound remaining after 30 mins; type: ADME, Microsome; details: read-out: Stability
For each record, write down the corresponding remaining at 0.5 h.
Numbers only, in %.

In the examples that follow, each entry is paired with its recorded remaining at 0.5 h.
COc1cc(NCc2cc3cc(Cl)ccc3[nH]c2=O)ccc1S(C)(=O)=O ... 81
COc1nc(C#N)ccc1N[C@@H](C)c1cc2cc(Cl)ccc2[nH]c1=O ... 60
Cc1ccnc(NCc2cc3cc(Cl)ccc3[nH]c2=O)c1 ... 0.6
COc1cc(NCc2cc3cc(Cl)c(OCCN4CCOCC4)cc3[nH]c2=O)ccc1C#N ... 13.1
COc1cc(NCc2cc3cc(F)ccc3[nH]c2=O)ccc1C#N ... 46
O=c1[nH]c2ccc(Cl)cc2cc1CNc1ccc(-c2csnn2)cc1 ... 57

Dear colleague, could you please provide remaining at 0.5 h for the compounds listed below?
1. COc1ccc2[nH]c(=O)c(CNc3ccc(C#N)c(OC)c3)cc2c1
2. Cc1cc(NCc2cc3cc(Cl)ccc3[nH]c2=O)ccc1C#N
3. COc1cc(NCc2cc3cc(Cl)cc(OC)c3[nH]c2=O)ccc1C#N
4. N#Cc1ccc(NCc2cc3cc(Cl)ccc3[nH]c2=O)nc1C(F)(F)F
5. N#Cc1ccc(NCc2cc3cc(Cl)ccc3[nH]c2=O)cc1

-- reply
10.5
49
3.4
100
53

* * *

system: MDR1 (P-gp); assay: Efflux ratio of apparent permeability from basolateral side to apical side over apical side to basolateral side in MDCK cells harboring MDR1 (unknown origin) at 10 uM incubated for 2 hrs by LC-MS/MS analysis; type: ADME, cell-based, Canis lupus familiaris; settings: dog
Parameter measured: efflux ratio at 2 h, 10 µM

-- ask Report efflux ratio at 2 h, 10 µM for `N#Cc1ccnc(N2C(=O)CC[C@H]2C(=O)N(c2cncc(F)c2)[C@H](C(=O)NC2CC(F)(F)C2)c2ccccc2Cl)c1` please.
-- reply > 350

* * *

test: Total Cmax in mouse at 1 mg/kg, iv or 5 mg/kg, po; type: ADME, organism-based; settings: in vivo
Parameter measured: Cmax (µM)
One number for each entry, in µM.

COc1cc2[nH]c(=O)c([C@H](C)Nc3ncc(C#N)c(OC)n3)cc2cc1Cl ... 5.2

Now let's try a different one.
-- ask Report Cmax for `COc1nc(N[C@@H](C)c2cc3cc(Cl)ccc3[nH]c2=O)ncc1C#N` please.
-- reply 5.9

* * *

test system: MDR1 (P-gp); assay: Apparent permeability from basolateral side to apical side in MDCK cells harboring MDR1 (unknown origin); type: ADME, cell-based, Canis lupus familiaris; conditions: dog
Parameter measured: Papp B→A (×10⁻⁶ cm/s)
Give bare numbers, in ×10⁻⁶ cm/s.

-- ask Could you share what Papp B→A was measured for `COc1nc(N[C@@H](C)c2cc3cc(Cl)ccc3[nH]c2=O)ncc1C#N` , tested on MDR1 (P-gp)?
-- reply 9.93

* * *

test: Total AUC (infinity) in rat at 1 mg/kg, iv or 5 mg/kg, po; format: ADME, organism-based; conditions: in vivo
For each record, write down the corresponding AUC(0-inf).
Answers are plain numbers, in µM·h.

COc1nc(N[C@@H](C)c2cc3cc(Cl)ccc3[nH]c2=O)ncc1C#N ... 22.6

Now let's try a different one.
-- ask Report AUC(0-inf) for `COc1cc2[nH]c(=O)c([C@H](C)Nc3ncc(C#N)c(OC)n3)cc2cc1Cl` please.
-- reply 10.7

* * *

test: Half-life in human hepatocytes; format: ADME, cell-based, Hepatocyte
Parameter measured: half-life (h)
Answers are plain numbers, in h.

COc1nc(N[C@@H](C)c2cc3cc(Cl)ccc3[nH]c2=O)ncc1C#N ... 4.32

-- ask Report half-life for `COc1cc2[nH]c(=O)c([C@H](C)Nc3ncc(C#N)c(OC)n3)cc2cc1Cl` please.
-- reply 3.07

* * *

test: Protein binding in rat plasma; type: ADME, cell-free; conditions: read-out: PPB (converted)
Parameter measured: fraction unbound
One number for each entry.

COc1nc(N[C@@H](C)c2cc3cc(Cl)ccc3[nH]c2=O)ncc1C#N ... 0.0203

Now let's try a different one.
-- ask Report fraction unbound for `COc1cc2[nH]c(=O)c([C@H](C)Nc3ncc(C#N)c(OC)n3)cc2cc1Cl` please.
-- reply 0.0045

* * *

For each record, write down the corresponding remaining at 0.5 h.
test: Metabolic stability in mouse liver microsomes assessed as compound remaining after 30 mins; assay type: ADME, Microsome; conditions: read-out: Stability
Give bare numbers, in %.

In the examples that follow, each entry is paired with its recorded remaining at 0.5 h.
COc1cc(NCc2cc3cc(Cl)c(OCc4ccccn4)cc3[nH]c2=O)ccc1C#N ... 73.4
COc1cc(NCc2cc3cc(Cl)c(OCC4CCCCN4C)cc3[nH]c2=O)ccc1C#N (stereo not drawn) ... 10.7

Now let's try a different one.
-- ask Report remaining at 0.5 h for `COc1cc(NCc2cc3cc(C)c(C)cc3[nH]c2=O)ccc1-n1cnnn1` please.
-- reply 27.9

* * *

test: Kinetic solubility of the compound; assay type: physicochemical; conditions: read-out: Kinetic_solubility
Parameter measured: solubility kinetic

In the examples that follow, each entry is paired with its recorded solubility kinetic.
COc1cc(N[C@@H](C)c2cc3cc(Cl)ccc3[nH]c2=O)ccc1C#N ... 4.1 µM
COc1cc(NCc2cc3cc(Cl)c(OC4CCN(C)CC4)cc3[nH]c2=O)ccc1C#N ... 0.41 µM

Dear colleague, could you please provide solubility kinetic for the compounds listed below?
1. COc1cc(NCc2cc3cc(Cl)c(OC[C@@H]4CCCN4C)cc3[nH]c2=O)ccc1C#N
2. COc1cc(NCc2cc3cc(Cl)ccc3[nH]c2=O)ccc1C#N
3. COc1cc(NCc2cc3cc(Cl)c(OCc4cc(C)n(C)n4)cc3[nH]c2=O)ccc1C#N
4. COc1cc(NCc2cc3cc(Cl)c(OCCN(C)C)cc3[nH]c2=O)ccc1C#N
5. Cc1nc(NC2(c3cc4cc(Cl)ccc4[nH]c3=O)CC2)ccc1C#N

-- reply
0.72 µM
0.43 µM
< 0.01 µM
1 µM
< 0.1 µM

Dear colleague, could you please provide solubility kinetic for the compounds listed below?
1. COc1cc(NCc2cc3cc(Cl)c(OCc4ccccn4)cc3[nH]c2=O)ccc1C#N
2. COc1cc(NCc2cc3cc(C)ccc3[nH]c2=O)ccc1-n1cnnn1
3. N#Cc1ccc(NCc2cc3cc(Cl)ccc3[nH]c2=O)cc1C(F)(F)F

-- reply
1: < 0.1 µM; 2: < 0.01 µM; 3: < 0.1 µM

* * *

molecular target: Isocitrate dehydrogenase [NADP] cytoplasmic (Homo sapiens, UniProt O75874, R132C); assay: Inhibition of human Myc-DDK-tagged IDH1 R132C mutant assessed as reduction in NADPH consumption pre-incubated for 15 mins followed by alpha-ketoglutarate substrate and NADPH addition after 45 mins by diaphorase and resazurin dye based assay
Sequence (O75874 2-414 R132C limits assumed): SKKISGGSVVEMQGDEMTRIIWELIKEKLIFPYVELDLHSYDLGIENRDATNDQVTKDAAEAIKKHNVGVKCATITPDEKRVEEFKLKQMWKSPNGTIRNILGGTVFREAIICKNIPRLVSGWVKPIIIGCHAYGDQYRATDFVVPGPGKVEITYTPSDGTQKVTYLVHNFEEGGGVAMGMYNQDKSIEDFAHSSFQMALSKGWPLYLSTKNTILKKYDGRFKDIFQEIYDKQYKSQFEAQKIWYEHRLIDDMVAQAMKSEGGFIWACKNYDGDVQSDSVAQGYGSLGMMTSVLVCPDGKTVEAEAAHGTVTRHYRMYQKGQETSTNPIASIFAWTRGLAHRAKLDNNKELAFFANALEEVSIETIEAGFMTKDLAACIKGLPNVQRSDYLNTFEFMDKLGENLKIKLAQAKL
Parameter measured: pIC50
One number for each entry, as −log10 of the molar value.

In the examples that follow, each entry is paired with its recorded pIC50.
COc1cc(NCc2cc3cc(Cl)c(OCc4ccccn4)cc3[nH]c2=O)ccc1C#N ... 6.65
COc1nc(N[C@@H](C)c2cc3cc(Cl)c(OCc4ccccn4)cc3[nH]c2=O)ncc1C#N ... 7.37

-- ask Report pIC50 for `COc1cc(NCc2cc3cc(Cl)c(OCc4cc(C)n(C)n4)cc3[nH]c2=O)ccc1C#N` please.
-- reply 6.50

* * *

For each record, write down the corresponding remaining at 0.5 h.
assay: Metabolic stability in mouse liver microsomes assessed as compound remaining after 30 mins; format: ADME, Microsome; settings: read-out: Stability
Answers are plain numbers, in %.

In the examples that follow, each entry is paired with its recorded remaining at 0.5 h.
COc1cc(NCc2cc3cc(C(F)(F)F)ccc3[nH]c2=O)ccc1C#N ... 89
Cc1nc(NCc2cc3cc(Cl)ccc3[nH]c2=O)ccc1C#N ... 69

Now let's try a different one.
-- ask Report remaining at 0.5 h for `N#Cc1ccc(NCc2cc3cc(Cl)ccc3[nH]c2=O)cc1OC(F)(F)F` please.
-- reply 72

* * *

For each record, write down the corresponding solubility kinetic.
assay: Kinetic solubility of the compound; assay type: physicochemical; settings: read-out: Kinetic_solubility

In the examples that follow, each entry is paired with its recorded solubility kinetic.
N#Cc1ccc(NCc2cc3cc(Cl)ccc3[nH]c2=O)cc1F ... < 0.1 µM
COc1cc(C#N)ccc1NCc1cc2cc(Cl)ccc2[nH]c1=O ... < 0.1 µM
COc1cc(NCc2cc3cc(Cl)cc(OC)c3[nH]c2=O)ccc1C#N ... < 0.1 µM
COc1cc(NCc2cc3cc(C(F)(F)F)ccc3[nH]c2=O)ccc1C#N ... < 0.1 µM
CCOc1cc(NCc2cc3cc(Cl)ccc3[nH]c2=O)ccc1C#N ... < 0.1 µM
N#Cc1ccc(NCc2cc3cc(Cl)ccc3[nH]c2=O)nc1C(F)(F)F ... < 0.1 µM

Dear colleague, could you please provide solubility kinetic for the molecules listed below?
1. COc1nc(N[C@@H](C)c2cc3cc(Cl)c(C4CC4)cc3[nH]c2=O)ncc1C#N
2. COc1cc(NCc2cc3ccc(C)cc3[nH]c2=O)ccc1-n1cnnn1
3. COc1cc2[nH]c(=O)c(CNc3ccc(C#N)c(OC)c3)cc2cc1Cl
4. COc1nc(N[C@@H](C)c2cc3cc(Cl)c(OCC4CC4)cc3[nH]c2=O)ncc1C#N
5. COc1cc(NCc2cc3cc(Cl)cc(OCCN4CCOCC4)c3[nH]c2=O)ccc1C#N
6. N#Cc1ccc(NCc2cc3cc(Cl)ccc3[nH]c2=O)cc1OC(F)(F)F

-- reply
0.4 µM
< 0.01 µM
< 0.1 µM
< 0.1 µM
< 0.1 µM
< 0.1 µM
